Test system: Pseudomonas aeruginosa
Test: Antibacterial activity against Pseudomonas aeruginosa AK 958 up to 40 ug/mL by broth microdilution method
Type: functional, organism-based
Activity calls are given as the source filed them. The calls are words filed in the database; no cut-off is given here.
Measure name: Activity

C=C(C)[C@@H]1CC[C@]2(CO)CC[C@]3(C)[C@H](CC[C@@H]4[C@@]5(C)CC[C@H](O)C(C)(C)[C@@H]5[C@H](O)C[C@]43C)[C@@H]12; inactive
CC(=O)[C@@H]1CC[C@]2(CO)CC[C@]3(C)[C@@H](CC[C@@H]4[C@@]5(C)CC[C@H](O)C(C)(C)[C@@H]5CC[C@]43C)[C@@H]12 [MESSAGENIN]; inactive
C=C(C)[C@@H]1CC[C@]2(C)CC[C@]3(C)[C@@H](C[C@@H](O)[C@@H]4[C@@]5(C)CCC(=O)C(C)(C)[C@@H]5CC[C@]43C)[C@@H]12 [RIGIDENOL]; inactive

* * *

System: Escherichia coli
Experiment: Antibacterial activity against Escherichia coli CECT 99 up to 40 ug/mL by broth microdilution method
Type: functional, organism-based
The source made the active and inactive calls. The calls are words filed in the database; no cut-off is given here.
Measure name: Activity

For orientation, consider the following solved cases.
C=C(C)[C@@H]1CC[C@]2(CO)CC[C@]3(C)[C@H](C[C@@H](O)[C@@H]4[C@@]5(C)CC[C@@H](O)C(C)(C)[C@@H]5CC[C@]43C)[C@@H]12; inactive
C=C(C)[C@@H]1CC[C@]2(C)CC[C@]3(C)[C@H](CC[C@@H]4[C@@]5(C)CCC(=O)C(C)(C)[C@@H]5CC[C@]43C)[C@@H]12; inactive
C=C(C)[C@@H]1CC[C@]2(C)CC[C@]3(C)[C@H](CC[C@@H]4[C@@]5(C)CC[C@H](O)C(C)(C)[C@@H]5CC[C@]43C)[C@@H]12; inactive
C=C(C)[C@@H]1CC[C@]2(CO)CC[C@]3(C)[C@@H](CC[C@@H]4[C@@]5(C)CCC(=O)C(C)(C)[C@@H]5[C@H](O)C[C@]43C)[C@@H]12; inactive

Below: the item to evaluate.
# Activity of "C=C(C)[C@@H]1CC[C@]2(CO)CC[C@]3(C)[C@H](CC[C@@H]4[C@@]5(C)C=CC(=O)C(C)(C)[C@@H]5CC[C@]43C)[C@@H]12" = inactive

* * *

Tested on: Candida albicans
Assay: Antifungal activity against Candida albicans UBC1 up to 40 ug/mL by broth microdilution method
Format: functional, organism-based
Activity calls are given as the source filed them. No cut-off for these calls is given here.
Measure name: Activity

C=C(C)[C@@H]1CC[C@]2(CO)CC[C@]3(C)[C@H](C[C@@H](O)[C@@H]4[C@@]5(C)CC[C@@H](O)C(C)(C)[C@@H]5CC[C@]43C)[C@@H]12; inactive
C=C(C)[C@@H]1CC[C@]2(C(=O)O)CC[C@]3(C)[C@H](CC[C@@H]4[C@@]5(C)CC[C@@H](O)C(C)(C)[C@@H]5CC[C@]43C)[C@@H]12 [EPIBETULINIC ACID]; inactive
C=C(C)[C@@H]1CC[C@]2(CO)CC[C@]3(C)[C@H](CC[C@@H]4[C@@]5(C)CC[C@H](O)C(C)(C)[C@@H]5CC[C@]43C)[C@@H]12; inactive
